Assay: soluble on expression in E. coli; label from the status in PepcDB or PDB records
experimental.endpoint: soluble on expression in E. coli

[
  {
    "residue.string": "MGSDKIHHHHHHMNIIICDDRIDDRKNLSDLLSDYGEKKNYEFTITEYDSGEQLCEEQSALEACQLLFLDINMQGMDGLKTAMRIKEKYPKLPVVLVTAYMNYALDGYKVKASRFLLKDNLADTIEECMDDLIAEINKNRRILEFRFVEGTIKLYADDIIYIETELHKNVFYTEKGTFQIYKKLDELENEFKDMGFVRAHLSFLVNMRYITKISGYVMTLTTGKKIPVPKARYAQVKREYMLYKGEE",
    "experimental.value": "not soluble"
  },
  {
    "residue.string": "MGSDKIHHHHHHMRIVFVGTPEFAAEILEHLIKNGFNVVGVVTQPDKPRGRGRKVAPTPVKAVAEKHEVPFIQPESINKKEALEFLRSVRPDVIIVASYGKILGEKVLSLPRLGCYNIHPSLLPKYRGASPIQRVLENGEERTGVTIYKMVKELDAGPIALQKEISVDPFETFDQLEKRLIELSKEMLIEFLEKLKTGNIELKEQDHSRATYAPMIKKEDLIVDFSKDAESVKNKIRAYDSRPGARAFLGNVEVKLFGVTAIDSSGDEPGLINYIDREGAWIGTGDGKVKVRYIQFPGKKKMTFWEAKNGRLIIEGMRFERRYES",
    "experimental.value": "not soluble"
  },
  {
    "residue.string": "MNKIFIYAGVRNHNSKTLEYTKRLSSIISSRNNVDISFRTPFNSELEISNSDSEELFKKGIDRQSNADDGGVIKKELLESDIIIISSPVYLQNVSVDTKNFIERIGGWSHLFRLAGKFVVTLDVAESNGSDNVSEYLRDIFSYMGGQILHQVSITNSLKDIAEAQLMEATYKIEDVLEGKIKYKTTDYQERAYQTLKLILENYDSEHFEKMYWEKKRLFEANSLEEWYYVENIKLEHHHHHH",
    "experimental.value": "soluble"
  },
  {
    "residue.string": "MKDLIELFWLRYTELQSAVGKNESDKIAVLERELELLLERIVGRKTESSEDIREQFRFAIDLLNHEAEDLGCVQRNSELLRTLVDRYVGMPLKAKVVGDEDEDTLAWHHRHLILDEDMLNDLDEPVVIVSPGYRVSFANALDAFQRNAPEGLIGCHIAELVGVHRFQNILREKLDNCFKGDTSKYTYAEDENGRTVVKSLEMSPCYSSAYKLVGAMVVIREIADRRRRAAG",
    "experimental.value": "not soluble"
  },
  {
    "residue.string": "MSLKQADELRFNEDGLIPAIVQDAASKEVLTLAYMNKESYEKTLETKETWFYSRSRQALWHKGETSGNTQAVKGIRYDCDQDALLVLVEPSGPACHTGSYSCFTKEQTEEQAADRFGIMNELERVIAERQAEMPEGAYTTYLFREGVDKILKKVGEEASEVIIAAKNRDHEELKWEAADLLYHLLVLLREQSLPLDDVLDVLKKRHSEIEEEGHHHHHH",
    "experimental.value": "soluble"
  },
  {
    "residue.string": "MGSGILFVFAIGAIPSQAQDIGSTDRLNVENWQEWETVGEAQLTWFVFDIYRSRLKAPNGQYLVSTDVSPHPFALEINYQRDISKQQLLEVTDEQWQKLGFPKSNRQQWITQLSFIFPSIKNGDELTYVTDGDKGQIIYRQAGTKTQKMVGEITDERMNDAFLSIWLSPKTEFPKLRKQLIGQVRP",
    "experimental.value": "not soluble"
  }
]

###

Assay: soluble on expression in E. coli; label from the status in PepcDB or PDB records

[
  {
    "residue.string": "MLKFENVTKSFKDGNRNIEAVKDTNFEINKGDIIALVGPSGSGKSTFLTMAGALQTPTSGHILINNQDITTMKQKALAKVRMSEIGFILQATNLVPFLTVKQQFTLLKKKNKNVMSNEDYQQLMSQLGLTSLLNKLPSEISGGQKQRVAIAKALYTNPSIILADEPTAALDTENAIEVIKILRDQAKQRKKACIIVTHDERLKAYCDRSYHMKDGVLNLENETVE",
    "soluble on expression in E. coli": "not soluble"
  },
  {
    "residue.string": "MGSDKIHHHHHHMPQTEAPDRILLIKLRHHGDILLTTPVARTLKSRFPQCEIDMLVYRETVPLLQHNPDIARVWTLDRSLRGWRKLVSQLRLLLALRRRRYQTVIHLSDQMQGAFFAKLLARRHAIGFDYPKRRKSPWHRFFTALAPLAPSDTLHTVSQNLLALSPLGITPTADEQRCVLPIQASDREAVAALLREAGVSGPYIVIHPSSRWFFKCWEDDRFAGLAEALASDGWSIVLTAAPDPAEMDMVAAIQGKIRSDRVVSVAGRLTLNQLAAIIDGARMFIGVDSVPMHMAAALGKDTVALFGPSKIHEWHPWMTRHRLLNAADYGELIDPDQVDTSTRQRYLKNIPLEAALRASRELLSSPAQE",
    "soluble on expression in E. coli": "not soluble"
  },
  {
    "residue.string": "MSQAELPVLRVAYMPLIDCAPLVAASRLGLDHAYGLQLQLHRQASWAGVRDRLLAGEVDAAHTLASLVYAIDLGVGGPQCPMALLMTLNHNGQAITLAPALAQGVAAGQPLPQVLAEAGRRVVFAQTFPTGTHALWLYYWLAACGVDPMRDVDVVSIPPPQMPEALASGLVDGYCSGEPWAAVAEAQGSGQRVIRSGELWPEHPEKVLACRREFAALQPELSERLTACVLEACRWLDAAPANRAQCAQWLADPDYIGVPAAHLAACLDADAATVSVDPSALAFHRGGAVNMPWLSDGEWFLEQFQRWGWHTLQAADLARLHDIHRLDNYRRAAQRAGVTAPDADRRINRLFDTPAALEHHHHHH",
    "soluble on expression in E. coli": "not soluble"
  },
  {
    "residue.string": "YQWLPNIGSGEAGADWGLRLTSRDMGKFGLMWLNKGQYNGTKIVGEEWLNELRKSKFYSYEMGYGLHFWQVSNVENGVAAVGIGEQYIVAIPNKNAVIVTTAGNYETRSRPVLTLIQQLSSLL",
    "soluble on expression in E. coli": "not soluble"
  },
  {
    "residue.string": "AGHMADGELNVDSLITRLLEVRGCRPGKIVQMTEAEVRGLCIKSREIFLSQPILLELEAPLKICGDIHGQYTDLLRLFEYGGFPPEANYLFLGDYVDRGKQSLETICLLLAYKIKYPENFFLLRGNHECASINRIYGFYDECKRRFNIKLWKTFTDCFNCLPIAAIVDEKIFCCHGGLSPDLQSMEQIRRIMRPTDVPDTGLLCDLLWSDPDKDVQGWGENDRGVSFTFGADVVSKFLNRHDLDLICRAHQVVEDGYEFFAKRQLVTLFSAPNYCGEFDNAGGMMSVDETLMCSFQILKPSEKKAKYQYGGLNSGRPVTPPRTANPPKKR",
    "soluble on expression in E. coli": "soluble"
  },
  {
    "residue.string": "GSHMLEDPQRRIRRPFSVAEVEALVQAVEKLGTGRWRDVKLCAFEDADHRTYVDLKDKWKTLVHTAKISPQQRRGEPVPQELLNRVLNAHGYWTQQQMQQLQQNV",
    "soluble on expression in E. coli": "soluble"
  },
  {
    "residue.string": "MEAVAEHDFQAGSPDELSFKRGNTLKVLNKDEDPHWYKAELDGNEGFIPSNYIRMTECNWYLGKITRNDAEVLLKKPTVRDGHFLVRQCESSPGEFSISVRFQDSVQHFKVLRDQNGKYYLWAVKFNSLNELVAYHRTASVSRTHTILLSDMNVETKFVQALFDFNPQESGELAFKRGDVITLINKDDPNWWEGQLNNRRGIFPSNYVCPYNSNKSNSNVAPGFNFGN",
    "soluble on expression in E. coli": "not soluble"
  },
  {
    "residue.string": "MALLWQLARNAEGDDPTNLESALIGKPVPKFRLESLDNPGQFYQADVLTQGKPVLLNVWATWCPTCRAEHQYLNQLSAQGIRVVGMNYKDDRQKAISWLKELGNPYALSLFDGDGMLGLDLGVYGAPETFLIDGNGIIRYRHAGDLNPRVWEEEIKPLWEKYSKEAAQ",
    "soluble on expression in E. coli": "soluble"
  },
  {
    "residue.string": "MKIYLMRHTSVLFNGNEHCYGFTDVDVRDTFEEEAAAACARLKGLDPEAVFTSPLQRAAKLAAFCGYPDAIRDDRLKEMNFGDWEGKPWEEILDTTDIEAFFRRYIDEPVSGGESQREQFERVRDFILEKKAAGYRSILIFCHGGVINCARTLVGQCTLESAFASLPPFGSLTELIL",
    "soluble on expression in E. coli": "not soluble"
  },
  {
    "residue.string": "MMSMKIFETTAPHPEASLLTAFSKNALDRFAEKRTEECVAEALKVDGTHIFAFSGNRLVLKHDEQVIDPLFSAYELAELQPDFDNAVLLGYRETGEPRIAVPVAVAEDQLASHYKLADARTLYRDHLLDEELLSEVAQAVSLTHWNADNRFCGRCGGTMEQRIGGYKRICASCSHTIFPRTDPVVIMMTIDIERDLCLLGRGAHFASGMYSCLAGFVEPGETIEQAVRRETHEESGVEIGRVRYHASQPWPMPHTLMIGCYAEALSSDIARDEIELEDCRWFTREEVAKMLEAPAGEGFSAPPIGAIAHRLMRDWVEWPE",
    "soluble on expression in E. coli": "soluble"
  },
  {
    "residue.string": "MSLLFDSHLHLDQLSDENIQQTLAHSKIIGMLAVSTNLNSAKKLLNLKQTYPKKLYIAAGFHPEQQLPSLEEQKKLFQWIDEHHSSISAIGEVGLPHYSKRENPNLDYVPYIELLERFILIAKKWDLPLNLHIVHNDVEIALELLQKHNIQRAHFHWFKTDEKSFQKFFSTPYFASLTPDILWNSKTQYVAQHLSLNRLMIETDSPWQHEGFERAGISEQLLAVLQKLAELKSLPLHSVQKQILLNTQQFYQLEGHHHHHH",
    "soluble on expression in E. coli": "soluble"
  },
  {
    "residue.string": "MHYLSPLSLSLFLFCIEGHRESFSFFPSHDDGWAEPTARSEGKRERERERERERERGERGPTDTLSLSLSQFT",
    "soluble on expression in E. coli": "not soluble"
  }
]

These measurements were taken from the DeepSol protein solubility set.
